# key: entry, value: Ratio IC50
- assaySummary: Selectivity index, ratio of IC50 for human recombinant squalene synthase over IC50 for Trypanosoma cruzi squalene synthase
measuredEndpoint: Ratio IC50

| structureAsSmiles | measuredEndpoint | comparator | reading |
| --- | --- | --- | --- |
| CCOC(=O)c1ccc(C2=CN3CCC2CC3)cc1 | Ratio IC50 | = | 140 |
| O[C@]1(C#Cc2cccc(OCc3ccccc3)c2)CN2CCC1CC2 | Ratio IC50 | > | 13 |
| CO[C@H]1CN(c2ccc(C#C[C@@]3(O)CN4CCC3CC4)c(Cc3ccccc3)n2)C[C@H]1O | Ratio IC50 | = | 1.8 |
| C1=C(Cc2ccc(-c3ccccc3)cc2)C2CCN1CC2 | Ratio IC50 | > | 27 |
| COCCCOc1ccc(C#C[C@@]2(O)CN3CCC2CC3)c(Cc2ccccc2)n1 | Ratio IC50 | = | 1.7 |
| C(#Cc1ccc(OCc2ccccc2)cc1)C1=CN2CCC1CC2 | Ratio IC50 | = | 0.3 |
